EC50 of cytotoxicity, short hinge CAR by entry:
# target_under_test: T1, CLL1 (UniProt Q5QGZ9 1-265, limits assumed)
# T1 sequence (looked up): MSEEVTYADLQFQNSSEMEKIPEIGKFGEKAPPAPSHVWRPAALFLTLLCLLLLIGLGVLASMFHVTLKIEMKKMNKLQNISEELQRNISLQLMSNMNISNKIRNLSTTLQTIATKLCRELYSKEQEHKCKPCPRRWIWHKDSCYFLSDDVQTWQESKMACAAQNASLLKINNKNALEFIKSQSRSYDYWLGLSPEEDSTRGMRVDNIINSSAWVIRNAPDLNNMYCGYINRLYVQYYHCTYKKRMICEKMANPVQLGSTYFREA
# protocol_notes: cell-based or functional assay
quantity_measured: EC50 of cytotoxicity, short hinge CAR (pM)

• anti-CLL1 (1075.7) Fab bivalent switch A + B (Fab, V domains shown) VH: DIQLQESGPGLVKPSQSLSLTCSVTGYSITSAYYWNWIRQFPGNKLEWMGYISYDGRNNYNPSLKNRISITRDTSKNQFFLKLNSVTTEDTATYYCAKEGDYDVGNYYAMDYWGQGTSVTVSS VL: ENVLTQSPAIMSASPGEKVTMTCRASSNVISSYVHWYQQRSGASPKLWIYSTSNLASGVPARFSGSGSGTSYSLTISSVEAEDAATYYCQQYSGYPLTFGAGTKLELKR = 0.5
• anti-CLL1 (1075.7) Fab switch B (HCNT3) (Fab, V domains shown) VH: DIQLQESGPGLVKPSQSLSLTCSVTGYSITSAYYWNWIRQFPGNKLEWMGYISYDGRNNYNPSLKNRISITRDTSKNQFFLKLNSVTTEDTATYYCAKEGDYDVGNYYAMDYWGQGTSVTVSS VL: ENVLTQSPAIMSASPGEKVTMTCRASSNVISSYVHWYQQRSGASPKLWIYSTSNLASGVPARFSGSGSGTSYSLTISSVEAEDAATYYCQQYSGYPLTFGAGTKLELKR = 0.6
• anti-CLL1 (1075.7) Fab switch C (heavy chain C terminus) (Fab, V domains shown) VH: DIQLQESGPGLVKPSQSLSLTCSVTGYSITSAYYWNWIRQFPGNKLEWMGYISYDGRNNYNPSLKNRISITRDTSKNQFFLKLNSVTTEDTATYYCAKEGDYDVGNYYAMDYWGQGTSVTVSS VL: ENVLTQSPAIMSASPGEKVTMTCRASSNVISSYVHWYQQRSGASPKLWIYSTSNLASGVPARFSGSGSGTSYSLTISSVEAEDAATYYCQQYSGYPLTFGAGTKLELKR = 4.9
